- Tested on: Macrophage
- PROTOCOL: Inhibition of LPS-induced NO production in ddY mouse macrophages at 30 uM after 20 hrs by Griess reagent assay relative to control
- Assay type: functional
Threshold check on inhibition at 30 µM: at or above 30% gives label 1, strictly below gives label 0.

Inquiry: Identify whether the reported inhibition at 30 µM of the following compound is 30% or greater: O=C(/C=C/c1ccc(O)c(O)c1)OCCc1ccccc1
Reply text: label 1

***
Inquiry: Could you tell me if the measured inhibition at 30 µM of O[C@H]1[C@H]2c3cc4c(cc3CN3CCC(=C[C@@H]1O)[C@H]23)OCO4 reaches 30% or more?
Reply text: label 1

Inquiry: Would you say OC1c2cc3c(cc2[C@]24C=C[C@@H](O)C[C@@H]2N1C[C@H]4O)OCO3 (mixture of isomers) shows inhibition at 30 µM at minimum 30%?
Reply text: label 0

Inquiry: Is inhibition at 30 µM for O[C@@H]1C=C[C@]23CCN(Cc4cc5c(cc42)OCO5)[C@H]3C1 at or above 30%?
Reply text: label 0

Inquiry: Hello, I need to know if CC(=O)O[C@H]1C=C[C@]23c4cc5c(cc4CN(C[C@@H]2O)[C@H]3C1)OCO5 has measured inhibition at 30 µM not below 30%. Thanks!
Reply text: label 1

====

- System: Macrophage
- PROTOCOL: Inhibition of LPS-induced NO production in ddY mouse macrophages at 100 uM after 20 hrs by Griess reagent assay relative to control
- Assay type: functional
Quick list: inhibition at 100 µM per entry.
Give a bare numeral; the unit % is implied.

# count of solved cases: 7
Inquiry: Note down inhibition at 100 µM recorded for O[C@@H]1C=C[C@]23CCN(Cc4cc5c(cc42)OCO5)[C@H]3C1
Reply text: 42.4

Inquiry: Provide measured inhibition at 100 µM value, entry: CNC(=N)NCCC[C@H](N)C(=O)O
Reply text: 63.1

Inquiry: Please give measured inhibition at 100 µM of the following entry: CO[C@H]1C=C[C@]23c4cc5c(cc4C(O)N(C[C@H]2O)[C@H]3C1)OCO5 (mixture of isomers)
Reply text: 69.5

Inquiry: Note down inhibition at 100 µM recorded for CC(=O)O[C@H]1C=C[C@]23c4cc5c(cc4CN(C[C@@H]2O)[C@H]3C1)OCO5
Reply text: 98.5

Inquiry: // fetch inhibition at 100 µM given entry OC1c2cc3c(cc2[C@]24C=C[C@@H](O)C[C@@H]2N1C[C@H]4O)OCO3 (mixture of isomers)
Reply text: 31.3

Inquiry: Give inhibition at 100 µM for the following molecule: N=C(N)NCCSSCCNC(=N)N [GUANIDINOETHYLDISULFIDE]
Reply text: 97.9

Inquiry: Look up and report measured inhibition at 100 µM for this entry: c1ccc2c(c1)ncc1cc3c(cc12)OCO3
Reply text: 0.3

Others:
Inquiry: Fill in inhibition at 100 µM for record O[C@H]1[C@H]2c3cc4c(cc3CN3CCC(=C[C@@H]1O)[C@H]23)OCO4
Reply text: 91.4

====

- System: Macrophage
- PROTOCOL: Inhibition of LPS-induced NO production in ddY mouse macrophages at 100 uM after 20 hrs by Griess reagent assay relative to control
- Assay type: functional
Measured inhibition at 100 µM, listed per entry for reference.
Just so you know, I need the unit written after the number.

Observe how each entry below is paired with its result.
Inquiry: Give inhibition at 100 µM for CO[C@H]1C=C[C@@]23c4cc5c(cc4CN(C[C@@H]2O)[C@H]3C1)OCO5
Reply text: 86.1%

Inquiry: Give inhibition at 100 µM for O[C@H]1C=C[C@]23c4cc5c(cc4CN(C[C@@H]2O)[C@H]3C1)OCO5
Reply text: 82%

Next up:
Inquiry: Give the measured inhibition at 100 µM for O=C(/C=C/c1ccc(O)c(O)c1)OCCc1ccccc1 [CAFFEIC ACID PHENETHYL ESTER]
Reply text: 99.6%

====

- System: Macrophage
- PROTOCOL: Inhibition of LPS-induced NO production in ddY mouse macrophages at 30 uM after 20 hrs by Griess reagent assay relative to control
- Format: functional
Short version: inhibition at 30 µM at least 60% is label 1, less is label 0.

Inquiry: Could you tell me if the measured inhibition at 30 µM of CO[C@H]1C=C[C@]23c4cc5c(cc4C(O)N(C[C@H]2O)[C@H]3C1)OCO5 (mixture of isomers) reaches 60% or more?
Reply text: label 0

Inquiry: Item c1ccc2c(c1)ncc1cc3c(cc12)OCO3 [TRISPHAERIDINE] with inhibition at 30 µM of 60% or above?
Reply text: label 0

Inquiry: inhibition at 30 µM >= 60% for N=C(N)NCCSSCCNC(=N)N [GUANIDINOETHYLDISULFIDE] ?
Reply text: label 1

Inquiry: Exam item: decide whether the reported inhibition at 30 µM for O[C@H]1C=C[C@]23c4cc5c(cc4CN(C[C@@H]2O)[C@H]3C1)OCO5 is at least 60%.
Reply text: label 0

More entries:
Inquiry: Does inhibition at 30 µM meet or surpass 60% for CNC(=N)NCCC[C@H](N)C(=O)O [TILARGININE] ?
Reply text: label 0

Inquiry: Dear colleague, could you confirm whether CO[C@H]1C=C[C@@]23c4cc5c(cc4CN(C[C@@H]2O)[C@H]3C1)OCO5 has inhibition at 30 µM at or above 60%?
Reply text: label 1
